Hi there, I'd appreciate the recorded pIC50 for every entry that follows.
# measured-on: DRB1*0802 (Homo sapiens, UniProt P01903+P01911, A100R/A103L/A169T/F76Y/H45Y/I96F/K41T/L162R/M171V/P40S/Q125H/Q178H/Q39Y/Q99D/R218S/R42G/S66Y/V115G/W38E)
# test-name: biochemical
// pIC50 is dimensionless: -log10 of concentration (M)

Input CC[C@H](C)[C@H](NC(=O)[C@H](CC(C)C)NC(=O)[C@H](CCCCN)NC(=O)CN)C(=O)N[C@@H](Cc1c[nH]cn1)C(=O)N[C@@H](CCC(=O)O)C(=O)N[C@@H](Cc1c[nH]c2ccccc12)C(=O)N[C@@H](CS)C(=O)N[C@@H](CS)C(=O)N[C@@H](CCCNC(=N)N)C(=O)N[C@@H](CO)C(=O)N[C@@H](CS)C(=O)N[C@H](C(=O)N[C@@H](CC(C)C)C(=O)N1CCC[C@H]1C(=O)O)[C@@H](C)O . Output pIC50: 5.14

Input CSCC[C@H](NC(=O)[C@@H](NC(=O)[C@H](Cc1ccccc1)NC(=O)[C@H](CCCNC(=N)N)NC(=O)[C@H](CC(N)=O)NC(=O)[C@H](CC(C)C)NC(=O)[C@H](CC(C)C)NC(=O)[C@H](CC(C)C)NC(=O)[C@H](CCCNC(=N)N)NC(=O)[C@H](CO)NC(=O)[C@@H](NC(=O)[C@@H](N)CCSC)C(C)C)[C@@H](C)O)C(=O)N[C@H](C(=O)N[C@@H](Cc1c[nH]cn1)C(=O)N[C@@H](CCCNC(=N)N)C(=O)N[C@@H](CCCNC(=N)N)C(=O)O)[C@@H](C)O . Output pIC50: 6.80

----------
# measured-on: DRB1*1101 (Homo sapiens, UniProt P01903+P01911, A100R/A169T/A87E/I96F/K41T/L162R/M171V/P40S/Q125H/Q178H/Q39Y/Q99D/R42S/S66Y/T262R/V115G/W38E)
# Sequence (P01903 26-254, other chains not shown): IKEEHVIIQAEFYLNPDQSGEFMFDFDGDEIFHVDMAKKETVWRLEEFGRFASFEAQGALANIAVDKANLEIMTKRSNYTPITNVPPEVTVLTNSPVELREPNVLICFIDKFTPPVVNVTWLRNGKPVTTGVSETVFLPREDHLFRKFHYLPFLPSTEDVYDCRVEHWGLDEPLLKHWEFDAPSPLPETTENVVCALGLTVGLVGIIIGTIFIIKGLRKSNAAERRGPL
# test-name: biochemical
# Type: binding
Where no end group is shown, it is not given here.
measured-endpoint: pIC50
// pIC50 is dimensionless: -log10 of concentration (M)

Input EGKVVQYENLKYTVI [Envelope 126-140] . Output pIC50: 5.05

----------
Hi there, I'd appreciate the recorded IC50 for every entry that follows.
# measured-on: DRB1*0301 (Homo sapiens, UniProt P01903+P01911, A100K/A102G/A103R/A169T/F55Y/I96L/K41T/L162R/M171V/P40S/Q125H/Q178H/Q39Y/R42S/S66N/T106N/T262R/W38E/Y61H)
# Sequence (P01903 26-254, other chains not shown): as above
# test-name: biochemical
State the answer as a number, implicitly in nM.

Input CC(C)C[C@H](NC(=O)[C@H](C)NC(=O)[C@H](CCC(=O)O)NC(=O)[C@H](Cc1ccccc1)NC(=O)[C@H](CCC(=O)O)NC(=O)[C@H](CC(C)C)NC(=O)[C@H](Cc1ccc(O)cc1)NC(=O)[C@H](CCCNC(=N)N)NC(=O)[C@H](C)NC(=O)CNC(=O)[C@H](CC(C)C)NC(=O)[C@@H](N)Cc1c[nH]c2ccccc12)C(=O)NCC(=O)N[C@@H](Cc1ccccc1)C(=O)N[C@@H](CC(C)C)C(=O)N[C@@H](CC(N)=O)C(=O)N[C@@H](CCC(=O)O)C(=O)O [NS5 477-493] . Output IC50: 2420

Input CC[C@H](C)[C@H](NC(=O)[C@H](C)NC(=O)[C@H](CC(N)=O)NC(=O)[C@H](CO)NC(=O)[C@H](C)NC(=O)[C@H](CC(C)C)NC(=O)[C@H](CCCNC(=N)N)NC(=O)[C@H](CC(C)C)NC(=O)[C@H](CC(=O)O)NC(=O)[C@H](CCCNC(=N)N)NC(=O)[C@@H](N)CCCNC(=N)N)C(=O)N[C@@H](CS)C(=O)N[C@@H](CO)C(=O)N[C@@H](C)C(=O)N[C@H](C(=O)N1CCC[C@H]1C(=O)N[C@H](C(=O)O)C(C)C)C(C)C [NS5 769-785] . Output IC50: 409

Input CC[C@H](C)[C@H](NC(=O)[C@H](CC(N)=O)NC(=O)CNC(=O)[C@@H](NC(=O)CNC(=O)[C@H](CC(N)=O)NC(=O)[C@@H](N)CO)[C@@H](C)O)C(=O)N[C@H](C(=O)N[C@@H](CO)C(=O)N[C@@H](CO)C(=O)N[C@H](C(=O)N[C@@H](CC(N)=O)C(=O)N[C@@H](CCSC)C(=O)N[C@H](C(=O)N[C@@H](CO)C(=O)N[C@@H](CCCNC(=N)N)C(=O)N[C@@H](CC(C)C)C(=O)O)C(C)C)C(C)C)C(C)C [NS5 221-237] . Output IC50: 15

Input CC[C@H](C)[C@H](NC(=O)[C@@H]1CCCN1C(=O)[C@H](CC(C)C)NC(=O)CNC(=O)[C@@H](N)CCCCN)C(=O)N[C@@H](CCCNC(=N)N)C(=O)N[C@@H](Cc1ccc(O)cc1)C(=O)N[C@@H](CCC(N)=O)C(=O)N[C@H](C(=O)N[C@H](C(=O)N[C@@H](C)C(=O)N[C@H](C(=O)N[C@@H](CCCCN)C(=O)N[C@@H](CO)C(=O)N[C@@H](CCC(=O)O)C(=O)O)[C@@H](C)O)[C@@H](C)O)[C@@H](C)O [NS3 237-251] . Output IC50: 1820

Input CC[C@H](C)[C@H](NC(=O)[C@H](CC(=O)O)NC(=O)CNC(=O)[C@@H](NC(=O)[C@@H](NC(=O)[C@@H](NC(=O)[C@@H](NC(=O)[C@H](CC(C)C)NC(=O)[C@@H](N)CCCCN)[C@@H](C)O)C(C)C)C(C)C)C(C)C)C(=O)N[C@H](C(=O)NCC(=O)N[C@H](C(=O)N[C@@H](CC(C)C)C(=O)N[C@@H](CCC(=O)O)C(=O)N[C@@H](CCC(N)=O)C(=O)O)C(C)C)[C@@H](C)CC [NS1 85-99] . Output IC50: 533
